# Tested on: Frankliniella occidentalis
# Assay Info: Test Example 1: water trap attraction test, single compounds
# Assay type: in vivo
# Parameters: key: (captured treated − captured untreated)×100/total released per cage
# Measurement Parameters: single compound, Amount 100 μg; 30 adult females per cage; 24 hours
Readout Label: Attraction Rate
Form rule: numeric answer, no unit written next to it.

Illustrative cases are given below, each with its answer.
CCOC(=O)c1cccnc1 [Ethyl nicotinate, ethyl nicotinate] :: 43
COc1ccccc1N :: 40
COC(=O)c1ccccc1C [Methyl o-toluate, methyl o-toluate] :: 23
COC(=O)c1cccc(N)c1 [Methyl m-aminobenzoate, methyl m-aminobenzoate] :: 40

## Input Which Attraction Rate is reported for this molecule? CC(C)=CCC/C(C)=C\CO
## Output 27

## Input Param item = O=Cc1ccccc1 ; retrieve measured Attraction Rate.
## Output 27

## Input I would be grateful if you could share the reported Attraction Rate for COC(=O)c1ccccc1 [Methyl benzoate, methyl benzoate] .
## Output 36

## Input Can you share its Attraction Rate? I mean this molecule: COc1ccc(C=O)cc1
## Output 36

## Input I am curious: what Attraction Rate value has been reported for CCCCCCC(C=O)=Cc1ccccc1 ?
## Output 30

## Input Record request: Attraction Rate value, item C=CC(C)(O)CCC=C(C)C (centres unmarked)
## Output 7

## Input Reported Attraction Rate, molecule CC(C)=CCC/C(C)=C/CO : ____
## Output 27

## Input Looking for the measured Attraction Rate of CC(=O)c1ccccc1N , can you help?
## Output 36

## Input If you can, please state the reported Attraction Rate value of COC(=O)c1ccccc1N [Methyl anthranilate, methyl anthranilate] .
## Output 20

## Input Dear colleague, I am looking for the recorded Attraction Rate of the following molecule: CC(C)=CCCC(C)CCO (centres unmarked)
## Output 23

----------
# System: Frankliniella occidentalis
# Assay Info: Test Example 1: water trap attraction test, single compounds
# Assay type: in vivo
# Design: key: (captured treated − captured untreated)×100/total released per cage
# Measurement Parameters: single compound, Amount 0.01 μg; 30 adult females per cage; 24 hours
Readout Label: Attraction Rate
Respond with the number and no other words.

Take a look at these entries with their results.
COC(=O)c1cccc(N)c1 [Methyl m-aminobenzoate, methyl m-aminobenzoate] :: 3
CC(=O)c1ccccc1N [o-aminoacetophenone] :: 3

Lab note: next compound to report on.
## Input Look up Attraction Rate with Frankliniella occidentalis for this compound: O=Cc1ccccc1 [Benzaldehyde, benzaldehyde]
## Output 23

----------
# Tested on: Frankliniella occidentalis
# Assay Info: Test Example 1: water trap attraction test, single compounds
# Assay type: in vivo
# Design: key: (captured treated − captured untreated)×100/total released per cage
# Measurement Parameters: single compound, Amount 1 μg; 30 adult females per cage; 24 hours
Think of 30 as a floor: if Attraction Rate stands on it or above, it is MET; beneath it, NOT MET.

Reference set, count: 5
COC(=O)c1ccccc1C [Methyl o-toluate, methyl o-toluate] :: NOT MET
COC(=O)c1cccc(N)c1 [Methyl m-aminobenzoate, methyl m-aminobenzoate] :: NOT MET
CCCCCCC(C=O)=Cc1ccccc1 [α-hexylcinnamaldehyde] :: MET
COc1ccccc1N [o-anisidine] :: NOT MET
COC(=O)c1ccccc1N [Methyl anthranilate, methyl anthranilate] :: NOT MET

## Input Given the entry O=Cc1ccccc1 [Benzaldehyde, benzaldehyde] , answer whether its Attraction Rate meets or surpasses 30.
## Output MET

## Input Is it the case that COC(=O)c1ccccc1 [Methyl benzoate, methyl benzoate] has Attraction Rate reaching or exceeding 30?
## Output NOT MET

## Input Answer whether Attraction Rate of C=CC(C)(O)CCC=C(C)C (stereo not shown) [Linalool, linalool] is greater than or equal to 30.
## Output NOT MET

## Input Item CC(C)=CCC/C(C)=C\CO [Nerol, nerol] with Attraction Rate of 30 or above?
## Output MET

----------
# Tested on: Tetranychus urticae
# Assay Info: Test Example 4: plastic tube filter paper contact test, mixtures of two compounds
# Assay type: in vivo
# Set-up: key: (treated − untreated contacts) ×100 / repetitions, %
# Measurement Parameters: weight of each compound 1 μg; contact with filter paper within 10 minutes
Label key: 1 means Attraction Rate under 20; -1 means Attraction Rate of 20 or more.

Examples with answers:
CCOC(=O)c1cccnc1 [Ethyl nicotinate, ethyl nicotinate] :: 1
CC(C)=CCC/C(C)=C\CO :: 1
COC(=O)c1ccccc1C [Methyl o-toluate, methyl o-toluate] :: 1

## Input Lab log: compare recorded Attraction Rate with 20; is it strictly lower for CC(=O)c1ccccc1N ?
## Output -1

## Input Bench note: check whether COc1ccccc1N shows Attraction Rate below 20
## Output 1

## Input Please let me know if COC(=O)c1ccccc1 [Methyl benzoate, methyl benzoate] shows Attraction Rate below 20.
## Output -1

## Input Take the compound C=CC(C)(O)CCC=C(C)C (centres unmarked) and say whether its Attraction Rate is less than 20.
## Output 1

## Input Check if Attraction Rate falls below 20 for O=Cc1ccccc1 .
## Output -1

----------
# Test system: Frankliniella occidentalis
# Assay Info: Test Example 1: water trap attraction test, single compounds
# Type: in vivo
# Set-up: key: (captured treated − captured untreated)×100/total released per cage
# Measurement Parameters: single compound, Amount 1 μg; 30 adult females per cage; 24 hours
# Method: Hexane solutions were prepared respectively containing single compounds selected from among p-anisaldehyde, benzaldehyde, ethyl nicotinate, geraniol, linalool, nerol, citronellol, methyl anthranilate, methyl benzoate, o-aminoacetophenone, o-anisidine, methyl m-aminobenzoate, methyl o-toluate and α-hexylcinnamaldehyde. […] 24 hours later, the number of Frankliniella occidentalis captured in the water trap was counted and the attraction rate was calculated using Equation 1. […]
Readout Label: Attraction Rate
Answer with the value's number alone.

CC(C)=CCCC(C)CCO (stereo not shown) [Citronellol, citronellol] :: 20
CCOC(=O)c1cccnc1 [Ethyl nicotinate, ethyl nicotinate] :: 30
COc1ccc(C=O)cc1 [p-anisaldehyde] :: 23

Alright, here's another compound for you.
## Input Data request, read-out Attraction Rate, for CC(=O)c1ccccc1N [o-aminoacetophenone]
## Output 23
